Values from ChEMBL document CHEMBL1145747

Catalogue of molecules with associated IC50
test system: West Nile virus; assay: Inhibitory activity determined against west nile virus (WNV) NTPase/helicase (NTPase/helicase Non structural protein 3) using DNA as substrate; assay type: functional

As a guide, the following entries are already answered.
>  <molecule>
CCCCCCCNc1nc(=O)c2c(ncn2C2O[C@H](CO)[C@@H](O)C2O)c(=O)[nH]1 (single isomer, unassigned)

>  <IC50>
> 300 µg/mL

$$$$
>  <molecule>
CN(C)c1nc(=O)c2c(ncn2C2O[C@H](CO)[C@@H](O)C2O)c(=O)[nH]1 (single isomer, unassigned)

>  <IC50>
> 300 µg/mL

$$$$

Note to self: IC50 recorded for O=c1nc(NCCCCc2ccccc2)[nH]c(=O)c2c1ncn2C1O[C@H](CO)[C@@H](O)C1O (single isomer, unassigned) was > 500 µg/mL

###

target: ATP-dependent RNA helicase SUPV3L1, mitochondrial (Homo sapiens); assay: Inhibitory activity against human Suv3 helicase using RNA as substrate
Sequence (Q8IYB8 whole entry): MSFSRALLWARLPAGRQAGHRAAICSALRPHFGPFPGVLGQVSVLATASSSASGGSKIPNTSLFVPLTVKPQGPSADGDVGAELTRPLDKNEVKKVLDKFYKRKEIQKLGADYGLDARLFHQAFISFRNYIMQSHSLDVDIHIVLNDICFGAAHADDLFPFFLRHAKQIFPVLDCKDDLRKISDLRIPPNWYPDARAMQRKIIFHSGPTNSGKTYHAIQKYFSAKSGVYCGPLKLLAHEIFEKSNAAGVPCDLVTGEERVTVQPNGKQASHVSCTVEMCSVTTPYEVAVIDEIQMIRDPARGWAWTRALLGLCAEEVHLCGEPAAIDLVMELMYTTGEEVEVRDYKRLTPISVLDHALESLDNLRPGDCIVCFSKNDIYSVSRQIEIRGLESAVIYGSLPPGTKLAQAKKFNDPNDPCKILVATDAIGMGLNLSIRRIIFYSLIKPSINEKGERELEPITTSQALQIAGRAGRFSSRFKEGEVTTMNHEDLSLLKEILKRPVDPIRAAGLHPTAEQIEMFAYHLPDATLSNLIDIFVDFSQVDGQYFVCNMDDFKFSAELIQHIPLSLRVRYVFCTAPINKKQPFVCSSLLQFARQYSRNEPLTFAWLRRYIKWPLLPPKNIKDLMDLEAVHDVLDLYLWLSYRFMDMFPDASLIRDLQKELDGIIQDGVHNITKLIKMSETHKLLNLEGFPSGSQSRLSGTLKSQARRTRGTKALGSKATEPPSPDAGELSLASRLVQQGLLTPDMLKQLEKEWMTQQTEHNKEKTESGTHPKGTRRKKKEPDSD
pIC50: −log10 of the molar value.
Catalogue of compounds with associated pIC50

As a guide, the following entries are already answered.
>  <compound>
CCCCCCCCCCCCNc1nc(O)c2ncnc-2c(O)n1

>  <observed-measurement>
< 2.84

$$$$
>  <compound>
CCCCCCCCCCCCNc1nc(=O)c2c(ncn2Cc2ccc(OC)cc2)c(=O)[nH]1

>  <observed-measurement>
< 2.97

$$$$
>  <compound>
CCCCCCCCCCCCNc1nc(=O)c2c(ncn2[C@H]2C[C@H](O)[C@@H](CO)O2)c(=O)[nH]1

>  <observed-measurement>
< 2.97

$$$$

Pending compound:
Note to self: pIC50 recorded for O=c1nc(Nc2ccccc2)[nH]c(=O)c2c1ncn2C1O[C@H](CO)[C@@H](O)C1O (single isomer, unassigned) was < 2.89
